// Max MFI lookup, one value per entry
Molecular target: T1, human GPC3 on CHO-K1-human GPC3 cells (clone CHOK1-hGPC3.2B5) (human, UniProt P51654 25-554)
T1 construct: whole, on cells; Stably transfected CHO-K1 clone 2B5
Assay: FACS on CHOK1-hGPC3.2B5 cells;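 note: flow cytometry binding of chimeric antibodies to the cells, read out as mean fluorescence intensity, with the half-maximal concentration derived by curve fitting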
Only the number, expressed in MFI, is required.

[[record]]
binder = "F1.9.19 human-murine chimeric antibody (antibody, human IgG1, kappa, V domains shown) VH: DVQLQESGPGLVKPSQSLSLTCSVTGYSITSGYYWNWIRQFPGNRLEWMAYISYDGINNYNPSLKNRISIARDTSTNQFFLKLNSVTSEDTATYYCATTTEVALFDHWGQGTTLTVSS VL: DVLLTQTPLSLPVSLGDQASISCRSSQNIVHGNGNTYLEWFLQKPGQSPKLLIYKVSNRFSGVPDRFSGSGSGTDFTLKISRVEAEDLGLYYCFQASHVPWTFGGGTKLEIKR"
measure_name = "Max MFI"
value_reported = 2700


## Input Please report Max MFI for the following binder: F1.145.22 human-murine chimeric antibody (antibody, human IgG1, kappa, V domains shown) VH: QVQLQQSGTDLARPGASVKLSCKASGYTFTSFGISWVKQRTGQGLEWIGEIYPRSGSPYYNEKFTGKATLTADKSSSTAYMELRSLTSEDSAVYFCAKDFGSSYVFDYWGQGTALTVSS VL: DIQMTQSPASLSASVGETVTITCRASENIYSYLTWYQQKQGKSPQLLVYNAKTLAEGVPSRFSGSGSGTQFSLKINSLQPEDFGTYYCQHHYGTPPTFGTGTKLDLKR
## Output 9700

// provenance: patent US20260116991A1
